Each recorded value in this set is attributed to patent US6162417A.

# assay.explanation: Tissue distribution of radioactivity after intravenous administration (Table 6)
# Format: in vivo, Sprague Dawley rats
# recorded.conditions: liver, rat, i.v., 60 min, mean (range) of 4 rats, read-out: Liver, mean % injected dose/gram
value.type: tissue uptake at 1 h
# output: numeric value plus its unit

Return reported tissue uptake at 1 h; argument: Ic1ccc([C@@H]2CN3CCC[C@@H]3c3ccccc32)cc1
1.26 %ID/g

----------
# assay.explanation: Regional brain distribution of radioactivity after intravenous administration (Table 4)
# Assay type: in vivo, Sprague-Dawley rats
# recorded.conditions: cortex, iv; rat, i.v., 5 min, mean of three rats; read-out: Cortex, mean % injected dose/gram
value.type: tissue uptake at 5 min (%ID/g)
Unit %ID/g implied. Number only.

Would you mind telling me what tissue uptake at 5 min value was observed for [123I]c1ccc([C@@H]2CN3CCC[C@@H]3c3ccccc32)cc1 [(+)-[^123 I]6] ?
2.06

----------
# assay.explanation: Regional brain uptake with and without preblocking by paroxetine or GBR 12909 (Table 5)
# Assay type: in vivo, Sprague Dawley rats
# recorded.conditions: rat, cerebellum, iv, 60 min, serotonin blocker paroxetine 5 mg/kg i.v. 15 min prior, read-out: Cerebellum uptake
value.type: tissue uptake at 1 h (%ID/g)
Write down the numeric answer in %ID/g and omit the unit.

Entry [123I]c1ccc([C@@H]2CN3CCC[C@@H]3c3ccccc32)cc1 [95% ee(6S, 10bR)-I-McN] : reported tissue uptake at 1 h = ?
0.43

----------
# assay.explanation: Tissue distribution of radioactivity after intravenous administration (Table 6)
# Assay type: in vivo, Sprague Dawley rats
# recorded.conditions: heart, rat, i.v., 30 min, mean (range) of 4 rats, read-out: Heart, mean % injected dose/gram
value.type: tissue uptake at 0.5 h (%ID/g)
API: value field is a number in %ID/g; no unit string.

Fill in: tissue uptake at 0.5 h of Ic1ccc([C@@H]2CN3CCC[C@@H]3c3ccccc32)cc1 is ___
0.55

----------
# assay.explanation: Tissue distribution of radioactivity after intravenous administration (Table 6)
# Format: in vivo, Sprague Dawley rats
# recorded.conditions: thyroid, rat, i.v., 120 min, mean (range) of 4 rats, read-out: Thyroid, mean % injected dose/gram
value.type: tissue uptake at 2 h
Please report the result as a number followed by the unit.

Param item = Ic1ccc([C@@H]2CN3CCC[C@@H]3c3ccccc32)cc1 ; retrieve measured tissue uptake at 2 h.
1.04 %ID/g

----------
# target.or.system: human serotonin transporter (Homo sapiens)
# Construct: expressed in transfected cells; host or cells: HEK-293, stably transfected
# Sequence (P31645 whole entry): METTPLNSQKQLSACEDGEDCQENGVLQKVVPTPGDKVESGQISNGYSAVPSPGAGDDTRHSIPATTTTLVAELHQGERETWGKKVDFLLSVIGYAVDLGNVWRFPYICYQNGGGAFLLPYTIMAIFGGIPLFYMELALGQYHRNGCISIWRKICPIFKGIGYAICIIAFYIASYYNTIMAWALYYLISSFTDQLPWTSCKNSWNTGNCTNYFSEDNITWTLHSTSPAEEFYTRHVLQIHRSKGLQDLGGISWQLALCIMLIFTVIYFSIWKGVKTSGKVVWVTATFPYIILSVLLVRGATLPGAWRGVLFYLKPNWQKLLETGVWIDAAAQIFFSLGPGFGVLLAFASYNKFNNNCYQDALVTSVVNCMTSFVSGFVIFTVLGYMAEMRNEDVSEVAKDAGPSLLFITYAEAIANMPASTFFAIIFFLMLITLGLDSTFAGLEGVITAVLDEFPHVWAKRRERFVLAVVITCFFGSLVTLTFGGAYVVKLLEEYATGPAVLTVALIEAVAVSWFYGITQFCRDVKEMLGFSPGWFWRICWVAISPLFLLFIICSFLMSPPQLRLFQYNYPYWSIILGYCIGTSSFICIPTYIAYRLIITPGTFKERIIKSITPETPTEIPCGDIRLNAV
# assay.explanation: Binding site inhibition in HEK-293 cell membranes transfected with human serotonin transporter ([3H]Citalopram)
For each record, write down the corresponding Ki.
Please reply with the bare figure in nM and do not write the unit itself.

// map FC/C=C\c1ccc([C@@H]2CN3CCC[C@@H]3c3ccccc32)cc1 (relative stereo) to recorded Ki (system: human serotonin transporter (Homo sapiens))
1

Reported Ki for human serotonin transporter (Homo sapiens), given Ic1ccc([C@@H]2CN3CCC[C@@H]3c3ccccc32)cc1 [compound 6, trans (95% ee) (6S, 10bR)] ?
0.9

Could you share what Ki was measured for Ic1ccc([C@@H]2CN3CCC[C@@H]3c3ccccc32)cc1 (relative stereo) [compound 6] , tested on human serotonin transporter (Homo sapiens)?
0.9

Provide value of Ki for this record tested with human serotonin transporter (Homo sapiens): C=Cc1ccc([C@@H]2CN3CCC[C@@H]3c3ccccc32)cc1 (relative stereo) [racemic CH=CH2]
3.7

----------
# assay.explanation: Tissue distribution of radioactivity after intravenous administration (Table 6)
# Assay type: in vivo, Sprague Dawley rats
# recorded.conditions: lung, rat, i.v., 30 min, mean (range) of 4 rats, read-out: Lung, mean % injected dose/gram
value.type: tissue uptake at 0.5 h (%ID/g)
Write the value in %ID/g as a bare number.

Quick one: tissue uptake at 0.5 h of Ic1ccc([C@@H]2CN3CCC[C@@H]3c3ccccc32)cc1 ?
1.53

----------
# assay.explanation: Tissue distribution of radioactivity after intravenous administration (Table 6)
# Type: in vivo, Sprague Dawley rats
# recorded.conditions: kidney, rat, i.v., 120 min, mean (range) of 4 rats, read-out: Kidney, mean % injected dose/gram
value.type: tissue uptake at 2 h (%ID/g)
Just the number please, in %ID/g, no unit attached.

Consider the compound Ic1ccc([C@@H]2CN3CCC[C@@H]3c3ccccc32)cc1 and give its measured tissue uptake at 2 h.
0.79

----------
# target.or.system: dopamine transporter (Rattus norvegicus, UniProt P23977)
# Construct: in rat cortical and striatal homogenates; from tissue; host or cells: rat brain, striatal and cortical homogenates/membranes
# Sequence (P23977 whole entry): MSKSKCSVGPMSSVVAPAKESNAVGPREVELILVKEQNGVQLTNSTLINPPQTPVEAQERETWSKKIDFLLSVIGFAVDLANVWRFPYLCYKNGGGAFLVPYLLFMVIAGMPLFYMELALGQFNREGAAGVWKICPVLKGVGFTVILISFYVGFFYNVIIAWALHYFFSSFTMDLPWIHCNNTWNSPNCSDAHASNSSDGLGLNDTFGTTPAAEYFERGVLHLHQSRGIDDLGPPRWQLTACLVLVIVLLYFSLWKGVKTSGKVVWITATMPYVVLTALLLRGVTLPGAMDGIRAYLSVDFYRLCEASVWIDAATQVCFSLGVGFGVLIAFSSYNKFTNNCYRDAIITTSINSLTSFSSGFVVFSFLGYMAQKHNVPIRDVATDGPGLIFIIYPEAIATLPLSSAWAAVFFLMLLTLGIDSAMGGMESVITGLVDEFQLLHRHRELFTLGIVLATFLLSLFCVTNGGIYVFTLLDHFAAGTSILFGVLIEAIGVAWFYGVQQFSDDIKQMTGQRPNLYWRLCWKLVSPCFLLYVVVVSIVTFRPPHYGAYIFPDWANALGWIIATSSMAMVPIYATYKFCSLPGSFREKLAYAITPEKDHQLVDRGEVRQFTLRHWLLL
# assay.explanation: Transporter binding site inhibition in rat brain striatal and cortical membranes - dopamine transporter ([3H]WIN 35428)
value.type: Ki (nM)
Note: unit nM is implicit; provide only the numeric part.

# lookup: Ki of FC/C=C\c1ccc([C@@H]2CN3CCC[C@@H]3c3ccccc32)cc1 (relative stereo)
221

----------
# assay.explanation: Regional brain distribution of radioactivity after intravenous administration (Table 4)
# Type: in vivo, Sprague-Dawley rats
# recorded.conditions: hypothalamus, iv; rat, i.v., 60 min, mean of three rats; read-out: Hypothalamus, mean % injected dose/gram
value.type: tissue uptake at 1 h
Provide the measurement as a number trailed by its unit.

What tissue uptake at 1 h value was documented for this compound, [123I]c1ccc([C@@H]2CN3CCC[C@@H]3c3ccccc32)cc1 [(+)-[^123 I]6] ?
3.73 %ID/g

----------
# assay.explanation: Regional brain distribution of radioactivity after intravenous administration (Table 4)
# Format: in vivo, Sprague-Dawley rats
# recorded.conditions: cortex, iv; rat, i.v., 30 min, mean of three rats; read-out: Cortex, mean % injected dose/gram
value.type: tissue uptake at 0.5 h (%ID/g)
Numeric answer only, unit %ID/g assumed.

Given the entry [123I]c1ccc([C@@H]2CN3CCC[C@@H]3c3ccccc32)cc1 [(+)-[^123 I]6] , report its measured tissue uptake at 0.5 h.
1.6

----------
# assay.explanation: Regional brain uptake with and without preblocking by paroxetine or GBR 12909 (Table 5)
# Assay type: in vivo, Sprague Dawley rats
# recorded.conditions: rat, cerebellum, iv, 5 mg/kg, 60 min, dopamine blocker GBR 12909 5 mg/kg i.v. 15 min prior, read-out: Cerebellum uptake
value.type: tissue uptake at 1 h
Returns: string containing the number followed by the unit.

Quick check: tissue uptake at 1 h of [123I]c1ccc([C@@H]2CN3CCC[C@@H]3c3ccccc32)cc1 [95% ee(6S, 10bR)-I-McN] ?
0.55 %ID/g

----------
# assay.explanation: Regional brain distribution of radioactivity after intravenous administration (Table 4)
# Format: in vivo, Sprague-Dawley rats
# recorded.conditions: hypothalamus, iv; rat, i.v., 120 min, mean of three rats; read-out: Hypothalamus, mean % injected dose/gram
value.type: tissue uptake at 2 h (%ID/g)
Report the figure in %ID/g without appending any unit label.

Sample [123I]c1ccc([C@@H]2CN3CCC[C@@H]3c3ccccc32)cc1 [(+)-[^123 I]6] — what was its tissue uptake at 2 h?
2.85

----------
# assay.explanation: Tissue distribution of radioactivity after intravenous administration (Table 6)
# Assay type: in vivo, Sprague Dawley rats
# recorded.conditions: lung, rat, i.v., 60 min, mean (range) of 4 rats, read-out: Lung, mean % injected dose/gram
value.type: tissue uptake at 1 h (%ID/g)
The figure you give is taken to be in %ID/g; do not add the unit.

If you can, please state the reported tissue uptake at 1 h value of Ic1ccc([C@@H]2CN3CCC[C@@H]3c3ccccc32)cc1 .
1.28

----------
# assay.explanation: Tissue distribution of radioactivity after intravenous administration (Table 6)
# Format: in vivo, Sprague Dawley rats
# recorded.conditions: kidney, rat, i.v., 60 min, mean (range) of 4 rats, read-out: Kidney, mean % injected dose/gram
value.type: tissue uptake at 1 h (%ID/g)
Record the value in %ID/g, omitting the unit from your answer.

Which tissue uptake at 1 h is listed for Ic1ccc([C@@H]2CN3CCC[C@@H]3c3ccccc32)cc1 ?
0.66

----------
# target.or.system: human dopamine transporter (Homo sapiens, UniProt Q01959)
# Construct: expressed in transfected cells; host or cells: MDCK (dog kidney) cells, stably transfected
# Sequence (Q01959 whole entry): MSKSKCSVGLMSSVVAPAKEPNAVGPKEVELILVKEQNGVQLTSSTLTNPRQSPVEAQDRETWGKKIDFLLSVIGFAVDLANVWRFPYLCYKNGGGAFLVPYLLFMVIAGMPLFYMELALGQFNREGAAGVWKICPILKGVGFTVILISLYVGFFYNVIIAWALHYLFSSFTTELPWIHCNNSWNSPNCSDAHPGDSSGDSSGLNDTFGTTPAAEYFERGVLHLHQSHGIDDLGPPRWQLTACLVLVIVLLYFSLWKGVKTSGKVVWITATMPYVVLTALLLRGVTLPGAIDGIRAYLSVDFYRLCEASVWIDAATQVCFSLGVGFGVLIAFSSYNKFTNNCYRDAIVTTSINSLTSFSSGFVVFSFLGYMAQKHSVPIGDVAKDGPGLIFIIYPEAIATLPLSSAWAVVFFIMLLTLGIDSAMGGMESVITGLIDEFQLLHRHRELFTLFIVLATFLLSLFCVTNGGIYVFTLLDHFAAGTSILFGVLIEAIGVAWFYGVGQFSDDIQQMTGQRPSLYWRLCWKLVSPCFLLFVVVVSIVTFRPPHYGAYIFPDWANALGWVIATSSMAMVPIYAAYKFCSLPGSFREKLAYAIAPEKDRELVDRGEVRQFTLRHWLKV
# assay.explanation: Binding site inhibition in MDCK cell membranes transfected with human dopamine transporter ([3H]WIN 35428)
# recorded.conditions: MDCK cells, human DA transporter; vs. [3H]WIN 35428; read-out: DA Ki
Binary label based on Ki with cut-off 0.9 nM: below gives criterion met, not below gives criterion not met.

Is it true that Ki reported for FCC#Cc1ccc([C@@H]2CN3CCC[C@@H]3c3ccccc32)cc1 (relative stereo) [racemic C=CCH2 F] is less than 0.9 nM?
criterion not met

Please check: Ki for Brc1ccc([C@@H]2CN3CCC[C@@H]3c3ccccc32)cc1 (relative stereo) [racemic Br] , strictly under 0.9 nM or not?
criterion met

Please check: Ki for FC/C=C\c1ccc([C@@H]2CN3CCC[C@@H]3c3ccccc32)cc1 (relative stereo) , strictly under 0.9 nM or not?
criterion not met

Dear colleague, could you confirm whether Ki of Fc1cccc2c1[C@H]1CCCN1C[C@H]2c1ccc(Br)cc1 (relative stereo) [racemic Br, X = F at position 10] falls below 0.9 nM? Thanks.
criterion met
